System: E. faecium JMI-990536
protocol: MIC by broth microdilution (CLSI)
Assay type: cell-based
particulars: Enterococcus faecium, JMI990536, 24 h, read-out: MIC E. faecium JMI-990536
Counter-ions that a name gives are not always drawn.
property.label: MIC (mg/L)
Give a bare numeral; the unit mg/L is implied.

Sample CC(C)C[C@@H]1CCO[C@@H]2[C@H](CN[C@@H]2C(=O)N[C@H]2[C@H]3O[C@H](S[C@H](c4cn(-c5ccc(F)cc5F)nn4)C/C=C\[C@H]2C)[C@H](O)[C@@H](O)[C@H]3O)C1 [FSA1609052, formate salt] ; MIC observed: 0.5

// MIC value for CC(C)C[C@@H]1CCO[C@@H]2[C@H](CN[C@@H]2C(=O)N[C@@H]2C/C=C\C[C@@H](C(F)F)S[C@H]3O[C@H]2[C@H](O)[C@H](O)[C@H]3O)C1 [FSA1607044, formate salt] : 1

Per the record, CC(C)C[C@@H]1CCO[C@@H]2[C@H](CN[C@@H]2C(=O)N[C@H]2[C@H]3O[C@H](SCCC/C=C\[C@H]2C)[C@H](O)[C@@H](O)[C@H]3O)C1 [FSA1609096, formate salt] has MIC of 0.125

Record summary for CC(C)C[C@@H]1CCO[C@@H]2[C@H](CN[C@@H]2C(=O)N[C@@H]2C/C=C\C[C@@H](F)CS[C@H]3O[C@H]2[C@H](O)[C@H](O)[C@H]3O)C1 [FSA1607022, formate salt] : reported MIC = 1
